This section presents binders with their documented Kd values.
# MEASURED_TARGET: T1, huNABA-avi-his (hybrid protein N-A1-B3-A2: N and A1 domains of human BGP, B3 domain of human CEA, A2 domain … (human, biotinylated at the avi tag (in vivo, co-transfected biotin ligase)))
# T1 construct: also called NABA-avi-his reagent; biotinylated NABA
# T1 chain: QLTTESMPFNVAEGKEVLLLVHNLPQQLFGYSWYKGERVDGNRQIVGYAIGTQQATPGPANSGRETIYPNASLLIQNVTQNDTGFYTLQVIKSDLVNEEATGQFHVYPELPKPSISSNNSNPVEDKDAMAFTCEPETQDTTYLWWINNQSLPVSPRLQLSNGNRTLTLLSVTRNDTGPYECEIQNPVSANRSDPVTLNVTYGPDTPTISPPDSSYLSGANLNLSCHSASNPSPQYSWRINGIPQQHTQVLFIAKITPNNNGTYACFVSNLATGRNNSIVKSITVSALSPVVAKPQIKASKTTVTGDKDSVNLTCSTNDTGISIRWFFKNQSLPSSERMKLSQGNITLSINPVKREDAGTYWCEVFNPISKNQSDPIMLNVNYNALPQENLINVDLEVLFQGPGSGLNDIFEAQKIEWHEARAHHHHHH
# TEST_PROTOCOL: Proteon SPR, antibody analyte on biotinylated NABA (Neutravidin chip)
Write the value in nM as a bare number.

[in] Can you share its Kd? I mean this binder: antibody with heavy chain CH7A (D99H) and light chain 2F1 (antibody, V domains shown, Bivalent form) VH: QVQLVQSGSELKKPGASVKVSCKASGYTFTEFGMNWVRQAPGQGLEWMGWINTKTGEATYVEEFKGRFVFSLDTSVSTAYLQISSLKAEDTAVYYCARWDFYHYVEAMDYWGQGTTVTVSS VL: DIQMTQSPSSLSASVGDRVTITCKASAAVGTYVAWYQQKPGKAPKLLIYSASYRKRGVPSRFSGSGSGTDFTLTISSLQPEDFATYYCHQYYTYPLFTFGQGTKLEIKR
[out] 2.25

[in] I have this binder here, antibody with heavy chain CH7A (A103T) and light chain 2F1 (antibody, V domains shown, Bivalent form) VH: QVQLVQSGSELKKPGASVKVSCKASGYTFTEFGMNWVRQAPGQGLEWMGWINTKTGEATYVEEFKGRFVFSLDTSVSTAYLQISSLKAEDTAVYYCARWDFYDYVETMDYWGQGTTVTVSS VL: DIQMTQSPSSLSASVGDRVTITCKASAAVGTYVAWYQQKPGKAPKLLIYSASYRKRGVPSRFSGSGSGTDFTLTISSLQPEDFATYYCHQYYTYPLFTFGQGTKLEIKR , and I need its recorded Kd.
[out] 2.87

[in] Look up Kd: antibody with heavy chain CH7A (Y98A/D99Y) and light chain 2F1 (antibody, V domains shown, Bivalent form; also called double mutant (Y98A/D99Y)) VH: QVQLVQSGSELKKPGASVKVSCKASGYTFTEFGMNWVRQAPGQGLEWMGWINTKTGEATYVEEFKGRFVFSLDTSVSTAYLQISSLKAEDTAVYYCARWDFAYYVEAMDYWGQGTTVTVSS VL: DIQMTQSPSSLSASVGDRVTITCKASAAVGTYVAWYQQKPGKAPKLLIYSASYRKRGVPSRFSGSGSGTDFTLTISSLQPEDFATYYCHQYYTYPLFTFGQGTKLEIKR
[out] 0.186

[in] Give the measured Kd of antibody with heavy chain CH7A (V101F) and light chain 2F1 (antibody, V domains shown, Bivalent form) VH: QVQLVQSGSELKKPGASVKVSCKASGYTFTEFGMNWVRQAPGQGLEWMGWINTKTGEATYVEEFKGRFVFSLDTSVSTAYLQISSLKAEDTAVYYCARWDFYDYFEAMDYWGQGTTVTVSS VL: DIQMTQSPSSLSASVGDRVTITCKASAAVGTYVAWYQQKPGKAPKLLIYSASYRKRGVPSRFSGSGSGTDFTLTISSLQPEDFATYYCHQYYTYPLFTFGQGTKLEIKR .
[out] 3.18

[in] Fill in the blank: the reported Kd of antibody with heavy chain CH7A (D99Y) and light chain 2F1 (antibody, V domains shown, Bivalent form) VH: QVQLVQSGSELKKPGASVKVSCKASGYTFTEFGMNWVRQAPGQGLEWMGWINTKTGEATYVEEFKGRFVFSLDTSVSTAYLQISSLKAEDTAVYYCARWDFYYYVEAMDYWGQGTTVTVSS VL: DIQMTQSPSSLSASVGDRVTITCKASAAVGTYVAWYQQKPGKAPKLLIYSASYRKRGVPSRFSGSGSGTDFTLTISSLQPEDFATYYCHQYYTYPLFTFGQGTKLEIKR is ____.
[out] 1.73
